biological target: 3-oxo-5-alpha-steroid 4-dehydrogenase 2 (Homo sapiens, UniProt P31213); assay: Inhibition of human prostate 5-alpha reductase 2 assessed as decrease in conversion of testosterone to dihydrotestosterone by chromatographic method
Sequence (P31213 whole entry): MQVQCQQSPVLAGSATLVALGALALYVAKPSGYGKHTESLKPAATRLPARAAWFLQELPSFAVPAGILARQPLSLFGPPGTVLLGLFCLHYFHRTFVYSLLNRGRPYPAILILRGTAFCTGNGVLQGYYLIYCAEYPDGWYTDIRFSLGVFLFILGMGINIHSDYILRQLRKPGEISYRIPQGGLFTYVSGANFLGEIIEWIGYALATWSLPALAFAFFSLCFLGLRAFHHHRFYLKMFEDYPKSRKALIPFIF
measured_parameter: IC50

In [3]: df
Out[3]:
                      smiles_representation      result
0  CCCCCC(=O)O[C@H]1CC[C@@]2(C)C(=CC[C@@H]3[C@@H]2CC[C@]2(C)C(C(=O)Cn4ccnc4)=CC[C@@H]32)C1  Not Active
1  CCCCC(=O)O[C@H]1CC[C@@]2(C)C(=CC[C@@H]3[C@@H]2CC[C@]2(C)C(C(=O)Cn4ccnc4)=CC[C@@H]32)C1  Not Active
2  CCCC(=O)O[C@H]1CC[C@@]2(C)C(=CC[C@@H]3[C@@H]2CC[C@]2(C)C(C(=O)Cn4ccnc4)=CC[C@@H]32)C1  Not Active
3  C[C@]12CC[C@H](OC(=O)C3CCCCCC3)CC1=CC[C@@H]1[C@@H]2CC[C@]2(C)C(C(=O)Cn3ccnc3)=CC[C@@H]12  Not Active
4  CC(=O)O[C@H]1CC[C@@]2(C)C(=CC[C@@H]3[C@@H]2CC[C@]2(C)C(C(C)=O)=CC[C@@H]32)C1  Not Active
5  CCC(=O)O[C@H]1CC[C@@]2(C)C(=CC[C@@H]3[C@@H]2CC[C@]2(C)C(C(=O)Cn4ccnc4)=CC[C@@H]32)C1  Not Active
